Value source: paper PMC3641071

assay: Pharmacokinetic study: sum total doxorubicin in plasma, brain tumor and brain by HPLC-FL; assay type: in vivo; settings: female, athymic nude (nu/nu), mouse; plasma; 6 mg/kg IV x1
readout label: Tmax (min)
Only the number, expressed in min, is required.

For the molecule shown here, COc1cccc2c1C(=O)c1c(O)c3c(c(O)c1C2=O)C[C@@](O)(C(=O)CO)C[C@@H]3O[C@H]1C[C@H](N)[C@H](O)[C@H](C)O1 , give the reported Tmax.
4.98

* * *

experiment: Pharmacokinetic study: sum total doxorubicin in plasma, brain tumor and brain by HPLC-FL; type: in vivo; details: female, athymic nude (nu/nu), mouse; brain tumor; 6 mg/kg IV x1
readout label: Tmax (h)
// note: answer is a bare numeric in h

Which Tmax is reported for this compound? COc1cccc2c1C(=O)c1c(O)c3c(c(O)c1C2=O)C[C@@](O)(C(=O)CO)C[C@@H]3O[C@H]1C[C@H](N)[C@H](O)[C@H](C)O1
6

* * *

assay: Pharmacokinetic study: sum total doxorubicin in plasma, brain tumor and brain by HPLC-FL; assay type: in vivo; details: female, athymic nude (nu/nu), mouse; plasma; 6 mg/kg IV x1
readout label: Vd (L/kg)
Provide only the numeric value, understood in L/kg.

Vd lookup needed for COc1cccc2c1C(=O)c1c(O)c3c(c(O)c1C2=O)C[C@@](O)(C(=O)CO)C[C@@H]3O[C@H]1C[C@H](N)[C@H](O)[C@H](C)O1 , thanks.
56.2

* * *

test: Pharmacokinetic study: sum total doxorubicin in plasma, brain tumor and brain by HPLC-FL; format: in vivo; details: female, athymic nude (nu/nu), mouse; plasma; 6 mg/kg IV x1; read-out: t1/2 of sum total doxorubicin (converted)
readout label: half-life

// returns reported half-life for input COc1cccc2c1C(=O)c1c(O)c3c(c(O)c1C2=O)C[C@@](O)(C(=O)CO)C[C@@H]3O[C@H]1C[C@H](N)[C@H](O)[C@H](C)O1 [NonL-doxo, Doxorubicin]
10 h

* * *

experiment: Pharmacokinetic study: sum total doxorubicin in plasma, brain tumor and brain by HPLC-FL; assay type: in vivo; settings: female, athymic nude (nu/nu), mouse; normal brain; 6 mg/kg IV x1
readout label: Tmax (h)
Report the figure in h without appending any unit label.

Consider the molecule COc1cccc2c1C(=O)c1c(O)c3c(c(O)c1C2=O)C[C@@](O)(C(=O)CO)C[C@@H]3O[C@H]1C[C@H](N)[C@H](O)[C@H](C)O1 and give its measured Tmax.
1

* * *

Assay: Pharmacokinetic study: sum total doxorubicin in plasma, brain tumor and brain by HPLC-FL
Format: in vivo
Conditions: female, athymic nude (nu/nu), mouse; normal brain; 6 mg/kg IV x1
Experimental: Group 1 (n = 23) received NonL-doxo administered over 10–15 seconds at 6 mg/kg IV ×1 via tail vein. […] Total tissue and tumor weight was recorded at time of collection. […] Samples were further processed for the analytical studies using protein precipitation with acetonitrile. […] The samples were then vortexed, transferred into auto-sampler vials and analyzed by high-performance liquid chromatography (HPLC) using fluorescence (FL) detection (excitation wavelength: 490 nm/ emission wavelength: 590 nm). […]
readout label: Cmax (ng/mL)
Write it as a number; the unit ng/mL goes unstated.

// lookup Cmax for COc1cccc2c1C(=O)c1c(O)c3c(c(O)c1C2=O)C[C@@](O)(C(=O)CO)C[C@@H]3O[C@H]1C[C@H](N)[C@H](O)[C@H](C)O1
92
